- System: TO-N3-2 (biotin conjugate)
- Test Description: pull-down binding Z-score (relative to library population); higher = stronger binding
- Condition Details: RNA library: Library-2
# label = label 1 if pull-down binding Z-score >= -0.6 else label 0

{"Monomer Sequence": "CUGGUCCAUGCUCAUACCCAAGCAGAAAGUGGCAGGCCCUCUUUGUAUCAGAAUGGACCAG [IAV_invivo_NS1_NEP_8_Motif_8+IAV_invivo_NS1_NEP_8_Motif_8]", "Category Label": "label 1"}
{"Monomer Sequence": "UGAUGCGUAUUAUGACAUGGUUGGAUAUGGUUGAUACUAGUUUGUCUGGUUUUAAGCUAAAAGACUGUGUUAUGUAUGCAUCA", "Category Label": "label 1"}

Hi, just wondering whether AGUGAUGGAACU [DMSMaPseq_invitro_SARS-CoV-2_Motif_229] shows pull-down binding Z-score of -0.6 or higher.
label 1

Assess whether reported pull-down binding Z-score for AACUGUGCGGCCGGCCACACCGUCACACCGGGU [hsa-mir-8083] sits at -0.6 or higher.
label 1
